FYI, the data here is from ChEMBL document CHEMBL3758117.

Target: DNA topoisomerase 2-alpha (Homo sapiens)
Assay: Inhibition of human DNA topoisomerase 2-mediated relaxation of supercoiled pBR322 DNA at 100 uM after 30 mins by ethidium bromide staining based agarose gel electrophoresis
Activity calls are given as the source filed them. No cut-off for these calls is given here.
Classes used: y for active, n for inactive

{"Structure As Smiles": "CN(C)CCCO/N=C1\\c2ccccc2-c2nc3c(C(=O)NCCN4CCOCC4)cccc3nc21.Cl", "Assayed System": "DNA topoisomerase 2-alpha (Homo sapiens)", "Label": "y"}
{"Structure As Smiles": "CN(C)CCCNC(=O)c1cccc2nc3c(nc12)-c1ccccc1C3=O", "Assayed System": "DNA topoisomerase 2-alpha (Homo sapiens)", "Label": "y"}
{"Structure As Smiles": "CN(C)CCCO/N=C1\\c2ccccc2-c2nc3c(CN4CCCC4)cccc3nc21.Cl", "Assayed System": "DNA topoisomerase 2-alpha (Homo sapiens)", "Label": "y"}
{"Structure As Smiles": "CN(C)CCCO/N=C1\\c2ccccc2-c2nc3c(C(=O)NCCN(C)C)cccc3nc21.Cl", "Assayed System": "DNA topoisomerase 2-alpha (Homo sapiens)", "Label": "y"}
{"Structure As Smiles": "O=C1c2ccccc2-c2nc3c(CN4CCCCC4)cccc3nc21", "Assayed System": "DNA topoisomerase 2-alpha (Homo sapiens)", "Label": "n"}
{"Structure As Smiles": "O/N=C\\c1cccc2nc3c(nc12)-c1ccccc1/C3=N/O", "Assayed System": "DNA topoisomerase 2-alpha (Homo sapiens)", "Label": "n"}
{"Structure As Smiles": "Cl.c1ccc2c(c1)/C(=N\\OCCN1CCCC1)c1nc3ccccc3nc1-2", "Assayed System": "DNA topoisomerase 2-alpha (Homo sapiens)", "Label": "y"}
{"Structure As Smiles": "CN(C)CCCO/N=C1\\c2ccccc2-c2nc3ccccc3nc21.Cl", "Assayed System": "DNA topoisomerase 2-alpha (Homo sapiens)", "Label": "y"}
{"Structure As Smiles": "O=C1c2ccccc2-c2nc3c(CN4CCCC4)cccc3nc21", "Assayed System": "DNA topoisomerase 2-alpha (Homo sapiens)", "Label": "n"}
{"Structure As Smiles": "CN(C)CCCO/N=C1\\c2ccccc2-c2nc3c(CN4CCC(N5CCCCC5)CC4)cccc3nc21.Cl", "Assayed System": "DNA topoisomerase 2-alpha (Homo sapiens)", "Label": "y"}
{"Structure As Smiles": "O=C1c2ccccc2-c2nc3c(CN4CCOCC4)cccc3nc21", "Assayed System": "DNA topoisomerase 2-alpha (Homo sapiens)", "Label": "n"}
{"Structure As Smiles": "CN(C)CCCNC(=O)c1cccc2nc3c(nc12)-c1ccccc1/C3=N\\OCCCN(C)C.Cl", "Assayed System": "DNA topoisomerase 2-alpha (Homo sapiens)", "Label": "y"}
{"Structure As Smiles": "CN(C)CCCO/N=C1\\c2ccccc2-c2nc3c(CN4CCCCC4)cccc3nc21.Cl", "Assayed System": "DNA topoisomerase 2-alpha (Homo sapiens)", "Label": "y"}
{"Structure As Smiles": "Cc1cccc2nc3c(nc12)-c1ccccc1/C3=N\\OCCCN(C)C.Cl", "Assayed System": "DNA topoisomerase 2-alpha (Homo sapiens)", "Label": "y"}
{"Structure As Smiles": "CN(C)Cc1cccc2nc3c(nc12)-c1ccccc1C3=O", "Assayed System": "DNA topoisomerase 2-alpha (Homo sapiens)", "Label": "n"}
{"Structure As Smiles": "O/N=C1\\c2ccccc2-c2nc3ccccc3nc21", "Assayed System": "DNA topoisomerase 2-alpha (Homo sapiens)", "Label": "n"}
{"Structure As Smiles": "CN(C)CCCO/N=C1\\c2ccccc2-c2nc3c(CN(C)C)cccc3nc21.Cl", "Assayed System": "DNA topoisomerase 2-alpha (Homo sapiens)", "Label": "y"}
{"Structure As Smiles": "O=C1c2ccccc2-c2nc3c(CN4CCC(N5CCCCC5)CC4)cccc3nc21", "Assayed System": "DNA topoisomerase 2-alpha (Homo sapiens)", "Label": "n"}
{"Structure As Smiles": "COc1ccc2c(c1)/C(=N\\OCCN1CCCC1)c1c-2c(O)nc2ccccc12", "Assayed System": "DNA topoisomerase 2-alpha (Homo sapiens)", "Label": "y"}
{"Structure As Smiles": "O=Cc1cccc2nc3c(nc12)-c1ccccc1C3=O", "Assayed System": "DNA topoisomerase 2-alpha (Homo sapiens)", "Label": "n"}
{"Structure As Smiles": "CN(C)CCNC(=O)c1cccc2nc3c(nc12)-c1ccccc1C3=O", "Assayed System": "DNA topoisomerase 2-alpha (Homo sapiens)", "Label": "y"}
{"Structure As Smiles": "CN(C)CCCO/N=C/c1cccc2nc3c(nc12)-c1ccccc1/C3=N\\OCCCN(C)C.Cl", "Assayed System": "DNA topoisomerase 2-alpha (Homo sapiens)", "Label": "y"}
{"Structure As Smiles": "O=C1c2ccccc2-c2nc3c(C(=O)NCCN4CCOCC4)cccc3nc21", "Assayed System": "DNA topoisomerase 2-alpha (Homo sapiens)", "Label": "n"}
{"Structure As Smiles": "CN(C)CCCO/N=C1\\c2ccccc2-c2nc3c(C(=O)O)cccc3nc21", "Assayed System": "DNA topoisomerase 2-alpha (Homo sapiens)", "Label": "n"}
{"Structure As Smiles": "CN(C)CCCO/N=C1\\c2ccccc2-c2nc3c(C(=O)NCCN4CCCC4)cccc3nc21.Cl", "Assayed System": "DNA topoisomerase 2-alpha (Homo sapiens)", "Label": "y"}
{"Structure As Smiles": "C(=N\\OCCN1CCCC1)/c1cccc2nc3c(nc12)-c1ccccc1/C3=N\\OCCN1CCCC1.Cl", "Assayed System": "DNA topoisomerase 2-alpha (Homo sapiens)", "Label": "y"}
{"Structure As Smiles": "O=C1c2ccccc2-c2nc3c(C(=O)NCCN4CCCC4)cccc3nc21", "Assayed System": "DNA topoisomerase 2-alpha (Homo sapiens)", "Label": "y"}
